Test system: Alopecurus myosuroides (ALOMY)
Experiment: Glasshouse assay for herbicidal activity (pre- and post-emergence), percentage phytotoxicity
Type: in vivo
Settings: Alopecurus myosuroides, pre-emergence, 480 h, 250 g/ha; pre-emergence; 20 DAA; visual assessment (100%=total damage, 0%=no damage); read-out: Pre-emergence herbicidal activity (percentage phytotoxicity) ALOMY PRE
Hi there, I'd appreciate the recorded pest or weed control at 250 g/ha for every entry that follows.
Note: a bare number is incomplete; add the unit.

Below, each entry is followed by its recorded pest or weed control at 250 g/ha result.
{"columns": ["molecule", "assayed_target", "pest or weed control at 250 g/ha"],
 "data": [
  ["COCCOCCCNC(=O)CC1CC(=O)C(c2c(C)cc(C)cc2C)C1=O (stereo not drawn)", "Alopecurus myosuroides (ALOMY)", "100%"],
  ["Cc1cc(-c2ncc(F)cc2F)cc(C)c1C1C(=O)CC(CC(=O)NCc2cccc(F)c2)C1=O (stereo not drawn)", "Alopecurus myosuroides (ALOMY)", "80%"],
  ["Cc1cc(C)c(C2C(=O)CC(CC(=O)NC(C)CC3CCCC3)C2=O)c(C)c1 (stereo not drawn)", "Alopecurus myosuroides (ALOMY)", "50%"],
  ["COCC(C)NC(=O)CC1CC(=O)C(c2c(C)cc(Br)cc2C)C1=O (stereo not drawn)", "Alopecurus myosuroides (ALOMY)", "90%"],
  ["Cc1cc(C)c(C2C(=O)CC(CC(=O)NC(C)(C)CCl)C2=O)c(C)c1 (stereo not drawn)", "Alopecurus myosuroides (ALOMY)", "30%"],
  ["C#CCNC(=O)CC1CC(=O)C(c2c(C)cccc2CC)C1=O (stereo not drawn)", "Alopecurus myosuroides (ALOMY)", "100%"]
]}

Please report pest or weed control at 250 g/ha for every entry that follows.
1. C#CCN(CC#C)C(=O)CC1CC(=O)C(c2c(C)cc(C)cc2C)C1=O (stereo not drawn)
2. Cc1cc(-c2ncc(C#N)cc2F)cc(C)c1C1C(=O)CC(CC(=O)NC(C)(C)C)C1=O (stereo not drawn)
3. CCc1cc(OCC(F)(F)F)cc(C)c1C1C(=O)CC(CC(=O)N2CCOCC2)C1=O (stereo not drawn)
4. Cc1cc(-c2ncc(Cl)cc2F)cc(C)c1C1C(=O)CC(CC(=O)NC2CCCC2)C1=O (stereo not drawn)
5. Cc1cc(-c2nc(C#N)cs2)cc(C)c1C1C(=O)CC(CC(=O)NC(C)(C)C)C1=O (stereo not drawn)

["70%", "70%", "100%", "80%", "60%"]

Please report pest or weed control at 250 g/ha for every entry that follows.
1. C=C(C)CNC(=O)CC1CC(=O)C(c2c(C)cc(C)cc2C)C1=O (stereo not drawn)
2. Cc1cc(C)c(C2C(=O)CC(CC(=O)NC3(C)CCC3)C2=O)c(C)c1 (stereo not drawn)
3. COc1ccc(CNC(=O)CC2CC(=O)C(c3c(C)cc(C)cc3C)C2=O)cc1 (stereo not drawn)
4. Cc1cc(-c2ncc(Cl)cc2F)cc(C)c1C1C(=O)CC(CC(N)=O)C1=O (stereo not drawn)
5. Cc1cc(-c2ncc(Cl)cc2F)cc(C)c1C1C(=O)CC(CC(=O)NCC2CC2(Cl)Cl)C1=O (stereo not drawn)
6. Cc1cc(-c2cc(C#N)c(F)cn2)cc(C)c1C1C(=O)CC(CC(=O)NC(C)(C)C)C1=O (stereo not drawn)
7. CC#Cc1cc(C)c(C2C(=O)CC(CC(=O)N3CCOCC3)C2=O)c(C)c1 (stereo not drawn)

1. 90%
2. 90%
3. 70%
4. 90%
5. 90%
6. 70%
7. 90%

Please report pest or weed control at 250 g/ha for every entry that follows.
1. Cc1cc(C)c(C2C(=O)CC(CC(=O)NC(C)C(F)(F)F)C2=O)c(C)c1 (stereo not drawn)
2. C=CCNC(=O)CC1CC(=O)C(c2c(C)cc(Br)cc2C)C1=O (stereo not drawn)
3. Cc1cc(C)c(C2C(=O)CC(CC(=O)NC/C=C/Cl)C2=O)c(C)c1 (stereo not drawn)
4. C#CCN(C)C(=O)CC1CC(=O)C(c2c(C)cc(C)cc2C)C1=O (stereo not drawn)
5. Cc1cc(C)c(C2C(=O)CC(CC(=O)NC(C)C(C)(C)C)C2=O)c(C)c1 (stereo not drawn)
6. Cc1cc(C)c(C2C(=O)CC(CC(=O)NCc3ccccc3C(F)(F)F)C2=O)c(C)c1 (stereo not drawn)
7. CC#CC(C)(C)NC(=O)CC1CC(=O)C(c2c(C)cc(C)cc2C)C1=O (stereo not drawn)

["80%", "70%", "90%", "70%", "60%", "10%", "90%"]

# credit: patent US10206394B2
